Tested on: WiDr
Test: Antiproliferative activity against human WiDr cells after 48 hrs by SRB assay
Type: functional
Mark yes (1) only for GI50 values smaller than 20 µM; exact matches and larger values are no (0).

*Q* Below 20 µM on GI50? Entry Nc1nc(N2CCCCC2)nc2c1[N+]([O-])=C(c1ccccc1)C2=O
*A* yes (1)

*Q* Below 20 µM on GI50? Entry Cc1ccc(C2=[N+]([O-])c3c(N)ncnc3C2=O)cc1
*A* no (0)

*Q* Below 20 µM on GI50? Entry CSc1nc(NCCN2CCOCC2)c2c(n1)C(=O)C(c1ccccc1)=[N+]2[O-]
*A* no (0)

*Q* Below 20 µM on GI50? Entry CSc1nc(N)c2c(n1)C(=O)C(c1ccc(C)cc1)=[N+]2[O-]
*A* no (0)

*Q* Below 20 µM on GI50? Entry Nc1nc(NCCc2ccccc2)nc2c1[N+]([O-])=C(c1ccccc1)C2=O
*A* no (0)

*Q* Below 20 µM on GI50? Entry Nc1nc(NCCN2CCOCC2)nc2c1[N+]([O-])=C(c1ccccc1)C2=O
*A* yes (1)

*Q* Below 20 µM on GI50? Entry CCc1ccc(C2=[N+]([O-])c3c(N)nc(SC)nc3C2=O)cc1
*A* no (0)

*Q* Below 20 µM on GI50? Entry Nc1nc(NCc2ccccc2)nc2c1[N+]([O-])=C(c1ccccc1)C2=O
*A* no (0)

*Q* Below 20 µM on GI50? Entry CCc1ccc(C2=[N+]([O-])c3c(N)ncnc3C2=O)cc1
*A* no (0)

*Q* Below 20 µM on GI50? Entry C[S+]([O-])c1nc(N)c2c(n1)C(=O)C(c1ccccc1)=[N+]2[O-] (stereo not given)
*A* no (0)
